Target: CDK4/cyclin D3 (Homo sapiens, UniProt P11802)
Construct: purchased Carna Biosciences, Inc. QS S Assist CDK4/Cyclin D3_FP Kit
Sequence (P11802 whole entry): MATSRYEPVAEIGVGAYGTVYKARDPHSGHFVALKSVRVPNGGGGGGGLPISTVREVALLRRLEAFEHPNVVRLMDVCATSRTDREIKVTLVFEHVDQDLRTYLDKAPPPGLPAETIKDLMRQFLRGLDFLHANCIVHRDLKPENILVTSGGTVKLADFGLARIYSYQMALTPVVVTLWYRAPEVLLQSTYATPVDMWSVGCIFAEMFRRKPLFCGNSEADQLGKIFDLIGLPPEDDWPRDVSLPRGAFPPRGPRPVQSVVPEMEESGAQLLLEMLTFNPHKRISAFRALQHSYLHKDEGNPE
Sequence (P30281 whole entry partner): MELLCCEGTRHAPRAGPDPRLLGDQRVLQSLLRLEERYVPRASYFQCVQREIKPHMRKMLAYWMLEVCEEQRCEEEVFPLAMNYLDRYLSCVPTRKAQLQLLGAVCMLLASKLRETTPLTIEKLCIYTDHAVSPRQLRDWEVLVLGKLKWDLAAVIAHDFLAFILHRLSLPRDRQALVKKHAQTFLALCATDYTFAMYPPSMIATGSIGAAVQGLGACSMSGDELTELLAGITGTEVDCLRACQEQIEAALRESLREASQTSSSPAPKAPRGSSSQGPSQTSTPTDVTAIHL
Assay: Human CDK4/cyclin D3 inhibitory activity (QS S Assist CDK4/Cyclin D3_FP Kit, IMAP fluorescence polarization)
Assay type: biochemical
Conditions: 50% inhibitory concentration against CDK4/cyclin D3, given as class symbol
For each record, write down the corresponding IC50.

Give the value of IC50 reported for the following: CC(C)Nc1nc(C2CCOC2)cc2cnc(Nc3ccc(N4CCNCC4=O)cn3)nc12 (single isomer, unassigned) [Compound 773]
< 10 nM

Quick one: give measured IC50 for CO[C@H](C)c1cc2cnc(Nc3ccc(N4CCN(C(C)C#N)CC4)nn3)nc2c(NC(C)C)n1 (some centres unmarked)
< 10 nM

Give a short answer stating reported IC50 for CC(C)Nc1nc([C@@H](C)O)cc2cnc(Nc3ccc(N4CC5CC(C4)C5O)nn3)nc12 (some centres unmarked) .
< 10 nM

Please list IC50 recorded for the compound CC(C)Nc1nc([C@@H](C)O)cc2cnc(Nc3ccc(N4CCN(CC#N)CC4=O)cn3)nc12
< 10 nM

Return IC50 (reported value) for this compound: CC(C)Nc1nc(C(C)O)cc2cnc(Nc3ccc(N4CCNC(C(F)(F)F)C4)nn3)nc12 (single isomer, unassigned) [Compound 990]
< 10 nM

Supply recorded IC50 for CCCNc1nc(C2(C)COC2)cc2cnc(Nc3ccc4c(n3)CCNC4)nc12 here.
< 10 nM

Annotate the compound C[C@@H](O)c1cc2cnc(Nc3ccc(CN4CCC[C@@H](O)C4)cn3)nc2c(NC(C)(C)C)n1 with its measured IC50.
< 10 nM

Return the recorded IC50 value; entry: C[C@@H](O)c1cc2cnc(Nc3ccc4c(n3)CCN(C(=O)CO)C4)nc2c(N[C@H]2CC[C@H](C)CC2)n1
< 10 nM

----------
So I've got a bunch of compounds here, and I need their pIC50 values.
Target: CDK4/cyclin D3 (Homo sapiens, UniProt P11802)
Construct: purchased Carna Biosciences, Inc. QS S Assist CDK4/Cyclin D3_FP Kit
Test: Human CDK4/cyclin D3 inhibitory activity (QS S Assist CDK4/Cyclin D3_FP Kit, IMAP fluorescence polarization)
Format: biochemical
Settings: 50% inhibitory concentration against CDK4/cyclin D3, given as class symbol
pIC50: −log10 of the molar value.

Param request: pIC50 | system CDK4/cyclin D3 (Homo sapiens, UniProt P11802) | item CCCNc1nc([C@@H](C)O)cc2cnc(Nc3ccc(-c4cncn4C)cn3)nc12
7.00 to 8.00

Report measured pIC50 on CDK4/cyclin D3 (Homo sapiens, UniProt P11802); entry: CC(C)Nc1nc(C2CCOC2)cc2cnc(Nc3ccc(N4CCNCC4=O)cn3)nc12 (single isomer, unassigned) [Compound 774]
7.00 to 8.00

Recall the reported pIC50 of CC(C)Nc1nc([C@@H](C)O)cc2cnc(Nc3ccc(O[C@H]4CC[C@H](N(C)C)CC4)cn3)nc12 on CDK4/cyclin D3 (Homo sapiens, UniProt P11802) and write it down.
> 8.00

Look up CDK4/cyclin D3 (Homo sapiens, UniProt P11802) data: pIC50 of C[C@@H](O)c1cc2cnc(Nc3ccc(N4CCNCC4=O)cn3)nc2c(NC2CCC(C)(C)OC2)n1 (stereo partly drawn) , then report it.
> 8.00

Please look at CNC1CCCC1Oc1ccc(Nc2ncc3cc(C(C)O)nc(NC(C)C)c3n2)nc1 (stereo not drawn) [Compound 739] and tell me its recorded pIC50 on CDK4/cyclin D3 (Homo sapiens, UniProt P11802).
> 8.00

Lab note: record pIC50 of CC(C)Nc1nc([C@@H](C)O)cc2cnc(Nc3ccc(N4CCN[C@H](C(C)C)C4=O)cn3)nc12 tested on CDK4/cyclin D3 (Homo sapiens, UniProt P11802).
7.00 to 8.00

Report the value of pIC50 obtained on CDK4/cyclin D3 (Homo sapiens, UniProt P11802) for CCC(OC)c1cc2cnc(Nc3ccc(N4CCNCC4)nn3)nc2c(NC(C)C)n1 (stereo not drawn) [Compound 1068] .
≤ 7.00

Report measured pIC50 on CDK4/cyclin D3 (Homo sapiens, UniProt P11802); entry: CCNc1nc([C@@H](C)O)cc2cnc(Nc3ccc(CN4CCN(C(C)CO)CC4)cn3)nc12 (single isomer, unassigned) [Compound 1088]
> 8.00

# return pIC50 for CCC(OC)c1cc2cnc(Nc3ccc(CN4CCNCC4)cn3)nc2c(NC(C)C)n1 (stereo not drawn) [Compound 1067] , test system: CDK4/cyclin D3 (Homo sapiens, UniProt P11802)
> 8.00

// fetch pIC50; item: CC(C)Nc1nc([C@@H](C)O)cc2cnc(Nc3ccc(N4CC(C)NCC4=O)cn3)nc12 (stereo partly drawn) ; system: CDK4/cyclin D3 (Homo sapiens, UniProt P11802)
> 8.00

Would you please give the reported pIC50 of CCNc1nc([C@@H](C)OC)cc2cnc(Nc3ccc4c(n3)CCN(CCO)C4)nc12 with CDK4/cyclin D3 (Homo sapiens, UniProt P11802)?
7.00 to 8.00

# lookup: CDK4/cyclin D3 (Homo sapiens, UniProt P11802) pIC50, key = CCNc1nc([C@@H](C)O)cc2cnc(Nc3ccc(N4CCN(C)CC4)nn3)nc12
> 8.00

Determine reported pIC50 for CC(C)Nc1nc([C@@H](C)O)cc2cnc(Nc3ccc(N4CC(F)(CO)C4)nn3)nc12 ; test system: CDK4/cyclin D3 (Homo sapiens, UniProt P11802).
> 8.00

Report value only: pIC50, CDK4/cyclin D3 (Homo sapiens, UniProt P11802), CC(C)N(C)c1nc([C@@H](C)O)cc2cnc(Nc3ccc(N4CCNCCC4=O)cn3)nc12
> 8.00

Look up and report pIC50, with CDK4/cyclin D3 (Homo sapiens, UniProt P11802) as system, for C[C@@H](O)c1cc2cnc(Nc3ccc(CN4CCN(CCO)CC4)cn3)nc2c(NC(C)(C)C)n1
> 8.00
